Numbers sourced from PubChem BioAssay AID449750.

procedure details: non-covalent RecA intein splicing inhibitors, dose response, biochemical, cell-free, fluorescence, secondary screen (AID 449750)
Active and inactive are the calls of the source. No rule for the calls is given here.
Classes used: active, inactive

compound	discrete label
CCC(C)Nc1nc(Cl)nc(N(C#N)CN2C(=O)c3ccccc3S2(=O)=O)n1 (stereo unspecified)	inactive
Cc1ccc(CNC(=O)CCN2C(=O)[C@@H]3Cc4ccccc4CN3C2=O)cc1	inactive
CCOC(=O)c1c(OCC)[nH]c2c1cc(O)c1ccccc12	active
CC(C)(C)Nc1nc(Cl)nc(N(C#N)CN2C(=O)c3ccccc3S2(=O)=O)n1	inactive
O=C(NCc1ccc2c(c1)OCO2)c1nc(S(=O)(=O)Cc2ccccc2F)ncc1Cl	inactive
Cc1ccccc1CS(=O)(=O)c1nnc([C@H](CC(C)C)NC(=O)OC(C)(C)C)o1	inactive
O=C(CCl)N1c2ccccc2OCC1c1ccccc1 (stereo unspecified)	active
CCC(C)N(CC(=O)Nc1cccc(C)c1C)C(=O)CCl (stereo unspecified)	active
O=c1[nH]c2ccc(Cl)cc2c(-c2ccccc2)c1SC(=S)N1CCCCC1	inactive
O=c1cc(-c2cccc([N+](=O)[O-])c2)[nH][nH]1	active
Cc1nc2c(-c3ccc(F)cc3)c(C)[nH]n2c(=O)c1Cl	inactive
CCCc1c(C)c2c(C)[nH]nc2oc1=O	inactive
CCC(C)[C@@H](NC(=O)OC(C)(C)C)c1nnc(S(=O)(=O)Cc2cccc(C)c2)o1 (stereo partly specified)	inactive
Cc1ccc(-c2cc(=O)[nH][nH]2)c(C)c1	active
O=c1[nH]cc(NCCc2ccccc2)c(=O)[nH]1	inactive
CCOc1cc(/C=C2\C(=N)N3N=C(S(=O)(=O)CC)SC3=NC2=O)ccc1OC(=O)c1ccco1	inactive
O=C(c1c[nH]c(C(=O)C(Cl)(Cl)Cl)c1)c1ccc(F)cc1Cl	active
CC(=O)OCCN(C)c1cc(SC(C)C)c2nonc2c1[N+](=O)[O-]	inactive
CN1CCN(C(c2ccc(Br)cc2)c2cc(Cl)c3cccnc3c2O)CC1 (stereo unspecified)	active
O=C1CCN(N=Nc2cccc(Cl)c2)N1	inactive
Nc1ccc2nc[nH]c2c1	active
CC(C)[C@H](NC(=O)OC(C)(C)C)c1nnc(S(=O)(=O)Cc2c(F)cccc2Cl)o1	inactive
Cc1ccc(C[n+]2c(-c3ccc(C)cc3)cc(-c3ccc(C)cc3)cc2-c2ccc(C)cc2)cc1	active
COc1ccc(C(=O)Nc2ccc(O)c3ccccc23)cc1OC	inactive
Cc1ccccc1N1C(=O)C(Cl)=C(N2CCOCC2)C1=O	inactive
Cc1[nH][nH]c(=O)c1C(c1ccc(F)cc1)c1c(C)[nH][nH]c1=O	active

---

procedure details: non-covalent RecA intein splicing inhibitors, dose response, biochemical, cell-free, fluorescence, secondary screen (AID 449750)
The source made the active and inactive calls. How the calls were made is not given here.
Classes used: 1 (yes) = active, 0 (no) = inactive

compound	discrete label
O=C(C(=C1N(Cc2ccc(Cl)nc2)CCN1Cc1ccc(Cl)nc1)[N+](=O)[O-])C(Cl)Cl	0 (no)
CCNC(=O)c1ccccc1-c1nc(-c2ccccc2)no1	0 (no)
Cc1ccc(C)c(S(=O)(=O)Nc2ccc(O)c3ccccc23)c1	1 (yes)
CCCCCCn1c(N2CCC(C(N)=O)CC2)nc2c1c(=O)n(C)c(=O)n2C	0 (no)
CCOC(=O)c1[nH]c(=O)c2ccccc2c1O	1 (yes)
O=C(CCl)Nc1cccc(S(=O)(=O)N2CCCCCC2)c1	0 (no)
CC1=CC2(O)OCCN(CCO)C2=CC1=O (configuration not stated)	1 (yes)
Cc1ccc(C(c2c(C)[nH][nH]c2=O)c2c(C)[nH][nH]c2=O)cc1	1 (yes)
O=C(Oc1ccc(Br)cc1C(=S)N1CCOCC1)c1cccc([N+](=O)[O-])c1	0 (no)
COc1cc(/C=C2/C(=O)N(c3ccc(Br)cc3)N=C2C)cc(OC)c1OC	1 (yes)
CC(C)(C)OC(=O)NCCc1nnc(S(=O)(=O)Cc2ccc(Cl)cc2Cl)o1	0 (no)
Oc1ccc(O)c2c1C1c3ccccc3C2c2ccccc21	1 (yes)
Cc1ccc(C(=O)N/N=C/c2ccc(-c3ccccc3[N+](=O)[O-])o2)cn1	1 (yes)
CC1=NN(Cc2ccccc2)C(=O)C1C(c1ccc(Cl)cc1)C(C#N)C#N (configuration not stated)	1 (yes)
Clc1ccc(-c2nnc(Sc3nc4ccccc4o3)c3ccccc23)cc1	1 (yes)
COc1ccc(OC)c(C2C(C#N)=C(N)Oc3c2c(C)nn3-c2cccc(Cl)c2)c1 (configuration not stated)	1 (yes)
CC(C)(C)c1cc[n+](C2=C([O-])c3ccccc3C(=O)/C2=N\S(=O)(=O)c2cccs2)cc1	1 (yes)
Cc1ccc(C)c(S(=O)(=O)/N=C2\C=C(NS(=O)(=O)c3ccccc3)C(=O)c3ccccc32)c1	1 (yes)
CC1=NN(c2ccccc2)C(=O)/C1=C/c1c(O)n(-c2ccc(F)c(Cl)c2)[nH]c1=O	1 (yes)
Oc1cccc(Nc2nc(-c3ccccc3Cl)nc3ccccc23)c1	0 (no)
CS(=O)(=O)c1ccc(C(=O)OCC(=O)NC23CC4CC(CC(C4)C2)C3)cc1[N+](=O)[O-]	0 (no)
Cc1cc(C(=O)c2ccc(C(C)(C)C)cc2)c(NC(=O)CCl)s1	1 (yes)
CCCc1[nH]nc2c1C(c1ccc(OC(=O)N3CCOCC3)cc1)C(C#N)=C(N)O2 (configuration not stated)	0 (no)
Cc1nc(Nc2ccc(O)cc2)c2c3c(sc2n1)CCCC3	0 (no)
O=C(Cc1cc(=O)[nH][nH]1)N/N=C/c1cccc(Cl)c1Cl	1 (yes)
COC(=O)C1CN(C#N)N(c2ccc(Cl)cc2)C12c1ccccc1-c1ccccc12 (configuration not stated)	1 (yes)
Cc1ccc(N2C(=O)C(Cl)=C(N3CCN(C)CC3)C2=O)c(C)c1	0 (no)
CN1CCN(Cc2cc(=O)oc3ccc(Cl)cc23)CC1	0 (no)
CCCC(=O)N(C1CC(C)C(C#N)(C#N)C1(C#N)C#N)N(C)C (configuration not stated)	0 (no)
O=C(c1c[nH]c(C(=O)C(Cl)(Cl)Cl)c1)c1ccccc1Br	1 (yes)
O=C(C1=C(c2ccccc2)C(=O)c2ccccc2C1=O)c1ccccc1	1 (yes)
O=C(N/N=C/c1coc2ccc(Cl)cc2c1=O)c1ccc(O)cc1	0 (no)
CC1=NN(c2ccc(F)cc2)C(=O)C1C(c1cccc(O)c1)c1c(C)[nH]n(-c2ccc(F)cc2)c1=O (configuration not stated)	1 (yes)
O=C(O)CSc1cc(NS(=O)(=O)c2ccc(Br)cc2)c2ccccc2c1O	1 (yes)
COC(CN(C(=O)CCl)C(C(=O)NC1CCCCC1)c1ccc(C)cc1)OC (configuration not stated)	1 (yes)
COc1ccccc1N(C(=O)CCl)c1cn(C(C)=O)c2ccccc12	1 (yes)
O=[N+]([O-])c1ccc(Oc2cccc(Br)c2)c2ccncc12	1 (yes)
O=S(=O)(Nc1ccc(O)c2ccccc12)c1ccc(F)cc1	1 (yes)
CC(=O)N(Cc1ccc(F)cc1)C1=C(NCc2ccccc2)C(=O)c2ccccc2C1=O	1 (yes)
CCOC(=O)c1nn(-c2ccc(OC)cc2)c(=O)c2c(N)scc12	0 (no)
CCCCc1ccc(NC(=O)CSCc2cc(=O)[nH][nH]2)cc1	1 (yes)
CC(C)CCn1c(Sc2nc3ccccc3o2)nc2c1c(=O)[nH]c(=O)n2C	1 (yes)
